- Study Target: Genome polyprotein (dengue virus type 2)
- Sequence (P29990 2492-3391 limits assumed): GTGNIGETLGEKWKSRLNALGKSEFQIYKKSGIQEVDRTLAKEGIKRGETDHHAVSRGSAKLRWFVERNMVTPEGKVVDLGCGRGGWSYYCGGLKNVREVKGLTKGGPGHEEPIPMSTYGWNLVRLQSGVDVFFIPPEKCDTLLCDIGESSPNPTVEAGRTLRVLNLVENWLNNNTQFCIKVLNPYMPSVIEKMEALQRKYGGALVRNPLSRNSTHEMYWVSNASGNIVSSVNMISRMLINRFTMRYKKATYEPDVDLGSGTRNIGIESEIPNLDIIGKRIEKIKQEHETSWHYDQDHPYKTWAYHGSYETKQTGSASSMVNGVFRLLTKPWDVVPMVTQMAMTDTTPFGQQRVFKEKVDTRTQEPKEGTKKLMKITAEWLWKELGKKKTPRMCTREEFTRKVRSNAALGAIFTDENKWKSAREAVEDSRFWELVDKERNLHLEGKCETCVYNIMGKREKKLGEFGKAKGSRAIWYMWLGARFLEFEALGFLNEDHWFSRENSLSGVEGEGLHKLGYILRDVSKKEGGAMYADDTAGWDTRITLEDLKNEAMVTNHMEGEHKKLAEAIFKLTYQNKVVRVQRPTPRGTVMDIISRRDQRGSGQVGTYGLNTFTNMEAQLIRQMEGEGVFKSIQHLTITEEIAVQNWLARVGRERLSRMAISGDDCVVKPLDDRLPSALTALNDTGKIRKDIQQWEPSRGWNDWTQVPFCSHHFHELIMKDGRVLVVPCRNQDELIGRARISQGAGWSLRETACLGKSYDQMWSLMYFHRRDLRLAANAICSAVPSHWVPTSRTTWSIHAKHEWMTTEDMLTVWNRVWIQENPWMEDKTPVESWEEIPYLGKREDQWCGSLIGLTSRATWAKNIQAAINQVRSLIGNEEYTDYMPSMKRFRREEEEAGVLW
- Procedure Details: Dengue-2 NS5 methyltransferase inhibitors, primary screen, biochemical, confirmation dose response (AID 588689)
- Type: functional
The source made the active and inactive calls.
Below, each entry is listed with its recorded IC50.

Check out these entries, answers already filled in.
Compound | IC50
Cc1ccc(NC(S)=NNc2ccc([N+](=O)[O-])cc2S(=O)(=O)Nc2ccccc2C(=O)O)cc1C | > 100 µM (active)
CCCOc1ccc(/C=C2/C(=O)ON=C2C)cc1OCC | 29 µM (active)
CCOc1ccc(/C=C2\SC(=S)N(NS(=O)(=O)c3ccccc3)C2=O)cc1OC | 71.2 µM (active)
O=C(O)c1ccc(N=N/C(=N\Nc2ccc(C(=O)O)cc2)c2ccccc2)cc1 | 30.4 µM (active)
CCCCCCCC1=NN(c2ccc(S(=O)(=O)O)cc2)C(=O)C1N=O (stereo not given) | 27.4 µM (active)
c1coc(-c2nc3ccccc3nc2-c2ccco2)c1 | > 100 µM (active)
Cc1ccc(C(=O)N/N=C/c2ccc(-c3ccc(Br)cc3[N+](=O)[O-])o2)o1 | > 100 µM (active)
Cc1ccccc1C1=C/C(=C(\SS/C(C(=O)c2ccc(OCC(=O)O)c(Cl)c2Cl)=C2\C=C(c3ccccc3C)SS2)C(=O)c2ccc(OCC(=O)O)c(Cl)c2Cl)SS1 | 9.25 µM (active)

Would you kindly share the measured IC50 for O=C(O)/C(CC(=O)c1ccc(Cl)cc1)=N/Nc1ccc([N+](=O)[O-])cc1[N+](=O)[O-] ?
12.5 µM (active)

Would you kindly share the measured IC50 for COc1ccc(C(C2C(=O)CC(C)(C)CC2=O)C2C(=O)CC(C)(C)CC2=O)cc1CO ?
45.8 µM (active)

====

- Study Target: Fatty acid synthase (Homo sapiens)
- Sequence (P49327 whole entry, the tested form may be a part): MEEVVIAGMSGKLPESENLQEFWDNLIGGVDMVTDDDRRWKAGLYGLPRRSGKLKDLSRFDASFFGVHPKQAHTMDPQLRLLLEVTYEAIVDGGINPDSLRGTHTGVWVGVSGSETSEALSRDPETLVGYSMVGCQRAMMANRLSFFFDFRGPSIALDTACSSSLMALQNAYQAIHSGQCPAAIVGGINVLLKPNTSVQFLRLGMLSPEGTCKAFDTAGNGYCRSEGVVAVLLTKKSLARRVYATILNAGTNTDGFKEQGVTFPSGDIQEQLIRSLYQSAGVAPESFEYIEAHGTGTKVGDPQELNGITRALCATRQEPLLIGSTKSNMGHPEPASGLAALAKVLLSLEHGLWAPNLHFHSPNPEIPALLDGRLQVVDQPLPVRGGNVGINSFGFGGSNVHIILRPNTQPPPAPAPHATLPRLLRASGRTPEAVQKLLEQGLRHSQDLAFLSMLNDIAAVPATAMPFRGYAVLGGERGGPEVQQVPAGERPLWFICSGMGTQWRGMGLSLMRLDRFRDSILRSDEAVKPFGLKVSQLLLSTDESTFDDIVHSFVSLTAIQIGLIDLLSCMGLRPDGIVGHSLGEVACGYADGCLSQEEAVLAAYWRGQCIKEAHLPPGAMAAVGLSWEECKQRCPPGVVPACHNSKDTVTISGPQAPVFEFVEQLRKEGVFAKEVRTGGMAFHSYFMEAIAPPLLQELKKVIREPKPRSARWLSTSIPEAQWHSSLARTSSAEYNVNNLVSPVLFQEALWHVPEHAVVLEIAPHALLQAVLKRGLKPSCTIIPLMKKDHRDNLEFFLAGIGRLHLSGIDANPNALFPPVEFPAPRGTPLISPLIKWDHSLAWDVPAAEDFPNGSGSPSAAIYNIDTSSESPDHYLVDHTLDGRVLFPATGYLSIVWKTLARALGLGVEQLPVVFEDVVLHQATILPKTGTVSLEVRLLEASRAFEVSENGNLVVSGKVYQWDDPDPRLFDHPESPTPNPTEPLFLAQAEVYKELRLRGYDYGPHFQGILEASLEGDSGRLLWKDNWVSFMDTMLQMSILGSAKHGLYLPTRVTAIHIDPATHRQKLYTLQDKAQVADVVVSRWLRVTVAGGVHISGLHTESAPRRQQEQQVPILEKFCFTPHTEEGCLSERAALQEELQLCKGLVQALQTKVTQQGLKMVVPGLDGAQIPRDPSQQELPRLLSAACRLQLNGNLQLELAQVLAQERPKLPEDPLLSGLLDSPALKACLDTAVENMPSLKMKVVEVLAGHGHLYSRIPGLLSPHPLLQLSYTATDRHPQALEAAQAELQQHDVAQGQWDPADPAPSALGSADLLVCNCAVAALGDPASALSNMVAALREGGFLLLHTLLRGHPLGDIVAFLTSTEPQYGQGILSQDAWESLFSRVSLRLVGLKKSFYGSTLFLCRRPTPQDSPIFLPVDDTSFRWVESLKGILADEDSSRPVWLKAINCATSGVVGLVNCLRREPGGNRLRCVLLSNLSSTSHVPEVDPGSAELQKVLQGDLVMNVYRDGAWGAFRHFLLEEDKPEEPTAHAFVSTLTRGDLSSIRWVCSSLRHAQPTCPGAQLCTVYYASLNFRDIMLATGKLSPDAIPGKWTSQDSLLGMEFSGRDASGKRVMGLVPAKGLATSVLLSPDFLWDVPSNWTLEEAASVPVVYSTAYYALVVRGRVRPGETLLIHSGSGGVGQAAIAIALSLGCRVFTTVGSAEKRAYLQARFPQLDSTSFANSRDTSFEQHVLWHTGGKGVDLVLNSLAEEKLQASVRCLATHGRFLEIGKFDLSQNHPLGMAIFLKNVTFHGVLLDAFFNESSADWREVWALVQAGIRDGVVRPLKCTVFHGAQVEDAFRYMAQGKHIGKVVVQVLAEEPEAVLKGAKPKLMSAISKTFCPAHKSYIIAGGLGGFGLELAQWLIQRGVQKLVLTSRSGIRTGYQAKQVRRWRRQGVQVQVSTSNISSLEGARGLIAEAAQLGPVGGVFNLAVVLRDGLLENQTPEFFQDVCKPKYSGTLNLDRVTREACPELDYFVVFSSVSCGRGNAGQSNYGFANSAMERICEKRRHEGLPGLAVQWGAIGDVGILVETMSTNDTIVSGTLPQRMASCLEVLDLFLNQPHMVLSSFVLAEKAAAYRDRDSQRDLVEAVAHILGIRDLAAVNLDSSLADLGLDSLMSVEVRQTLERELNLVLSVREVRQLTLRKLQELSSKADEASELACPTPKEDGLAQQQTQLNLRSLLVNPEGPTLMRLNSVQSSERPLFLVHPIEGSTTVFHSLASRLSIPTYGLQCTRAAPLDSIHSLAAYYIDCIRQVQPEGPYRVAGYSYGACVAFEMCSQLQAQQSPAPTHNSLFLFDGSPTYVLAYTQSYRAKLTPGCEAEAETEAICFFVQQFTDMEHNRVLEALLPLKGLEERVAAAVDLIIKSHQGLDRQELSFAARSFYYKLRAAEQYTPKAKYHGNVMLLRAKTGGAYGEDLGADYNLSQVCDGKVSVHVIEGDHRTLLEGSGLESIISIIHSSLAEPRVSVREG
- Procedure Details: FAS thioesterase domain inhibitors, dose response, biochemical, endpoint fluorescence intensity, uHTS hits (AID 624327);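 further: fluorescence from hydrolysis of an O-methyl fluorescein acyl ester substrate by the enzyme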
- Format: functional
Active and inactive are the calls of the source.
Below, each entry is listed with its recorded IC50.

Item Smiles | IC50
NC(=S)n1nc(-c2ccc([N+](=O)[O-])cc2)c(/N=N/c2ccc(Cl)cc2)c1O | 17.5 µM (active)
COc1cc(/C=N/NC(=O)c2cncc(Br)c2)cc([N+](=O)[O-])c1O | 18.7 µM (active)
Cc1ccccc1C1=C/C(=C(\SS/C(C(=O)c2ccc(OCC(=O)O)c(Cl)c2Cl)=C2\C=C(c3ccccc3C)SS2)C(=O)c2ccc(OCC(=O)O)c(Cl)c2Cl)SS1 | 8.12 µM (active)
COc1ccc(-c2csc3nc(-c4ccccc4F)oc(=O)c23)cc1OC | 9.02 µM (active)

Moving on to another molecule below.
Would you kindly share the measured IC50 for Cc1ccc(-n2[nH]c(C)c(/C=N/Nc3ccc([N+](=O)[O-])cc3[N+](=O)[O-])c2=O)cc1 ?
12.6 µM (active)

====

Below, each entry is listed with its recorded IC50.
- Study Target: UniProtKB P11940
- Sequence (P11940 whole entry): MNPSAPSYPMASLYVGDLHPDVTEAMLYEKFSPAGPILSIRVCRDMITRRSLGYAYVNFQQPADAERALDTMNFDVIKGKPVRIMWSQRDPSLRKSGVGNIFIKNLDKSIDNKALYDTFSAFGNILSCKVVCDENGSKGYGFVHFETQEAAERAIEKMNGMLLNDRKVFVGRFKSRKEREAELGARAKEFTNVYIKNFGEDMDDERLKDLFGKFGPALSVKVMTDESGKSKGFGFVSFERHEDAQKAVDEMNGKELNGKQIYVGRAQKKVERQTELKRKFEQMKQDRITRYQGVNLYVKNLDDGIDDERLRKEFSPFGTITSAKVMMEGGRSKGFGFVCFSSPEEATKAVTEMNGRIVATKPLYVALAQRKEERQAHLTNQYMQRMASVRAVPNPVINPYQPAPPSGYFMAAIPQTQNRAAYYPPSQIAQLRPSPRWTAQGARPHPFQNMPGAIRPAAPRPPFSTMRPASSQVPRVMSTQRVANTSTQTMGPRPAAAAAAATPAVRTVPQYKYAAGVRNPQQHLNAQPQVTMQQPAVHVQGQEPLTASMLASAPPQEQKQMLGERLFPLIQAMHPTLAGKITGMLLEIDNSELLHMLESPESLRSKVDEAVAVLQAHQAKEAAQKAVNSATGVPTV
- Procedure Details: PABP1 MLLE–PAM2 binding inhibitor potency, dose response, biochemical, fluorescence polarization, FITC-PAM2 peptide (AID 602259)
- Assay type: functional
- Settings: read-out: IC50_Mean
Calls of active or inactive are those of the source.

Check out these entries, answers already filled in.
Compound | Obs Value
FC(F)(F)c1cccc(NC(S)=Nc2cccc(N=C(S)Nc3cccc(C(F)(F)F)c3)n2)c1 | > 66 µM (inactive)
C[C@@H]1[C@@H](Sc2ccccc2)CC(=O)O[C@@H]1c1ccc(-c2ccccc2)cc1 | > 66 µM (inactive)
Nc1cccc2c1C(=O)N(c1ccccc1)C2=O | 24 µM (inactive)
Cc1ccc(NC(=S)N/N=C2/CCCCc3ccccc32)cc1 | > 66 µM (inactive)
Oc1c(/C=N/Cc2ccccc2)sc2ccccc12 | > 66 µM (inactive)

Moving on to another compound below.
Would you kindly share the measured IC50 for COc1ccc2c(c1)CCN1C2CCN2C(=O)CCC21 (stereo unspecified) ?
> 66 µM (inactive)
